normalized growth overview
Test details: chemical genetic growth profiling, strain panel (AID 1159580);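 note: tested at 20 µM; growth read once vehicle control cultures reached saturation at 30 °C; 1 = growth at the plate median or of vehicle wells; lower values mean less growth of the strain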
Conditions used: S. cerevisiae deletion strains, growth OD, locus YMR058W, strain fet3, active compounds read low
Out of some 5,500 compounds screened, about 2,000 (36%) were called active. Not shown: some 18% with an inconclusive outcome. The list shows a part of the results.
Result type: normalized growth

molecule=Oc1c(I)cc(I)c2cccnc12 endpoint_value=0.0746
molecule=COc1c2c(cc3c1OCO3)CCN(C)C2 endpoint_value=1.02
molecule=CC(=O)Oc1ccc(Cl)c2cccnc12 endpoint_value=0.0625
molecule=COc1cc2c(c(OC)c1OC)-c1ccc(OC)c(=O)cc1[C@@H](NC(C)=O)CC2 endpoint_value=1.01
molecule="CCC(Cc1c(I)cc(I)c(N)c1I)C(=O)O (configuration not stated)" endpoint_value=0.944
molecule="O=C(O)CCCCC1CCSS1 (configuration not stated)" endpoint_value=0.968
molecule=Cc1ccsc1/C=C/C1=NCCCN1C endpoint_value=0.987
